Source: patent US11524955B2

# System: IL-23, THP1 cells
# assay-details: IL-23 assay, THP1 cells primed with IFNg, LPS stimulated, ELISA
# Assay type: cell-based
# particulars: Homo sapiens, THP-1; read-out: IL23 (LPS induced) IC50
Recorded IC50, one value per entry.
property-label: IC50 (nM)

>>> numeric_value("NC(=O)[C@@H]1[C@H](Nc2nc(Nc3cccc(C(=O)N4CCCC4)c3)ncc2-c2ccoc2)[C@H]2C=C[C@@H]1C2")
40
>>> numeric_value("N#Cc1cccc(-c2cnc(Nc3cccc(C(=O)N4CCCC4)c3)nc2N[C@@H]2CCCC[C@@H]2C(N)=O)c1")
900
>>> numeric_value("NC(=O)[C@@H]1[C@H](Nc2nc(Nc3cccc(C(=O)N4CCCC4)c3)ncc2-c2ccccc2)[C@H]2C=C[C@@H]1C2")
220
>>> numeric_value("N#Cc1cccc(-c2cnc(Nc3cccc(C(=O)N4CCCC4)c3)nc2N[C@H]2[C@@H](C(N)=O)[C@@H]3C=C[C@H]2C3)c1")
280
>>> numeric_value("NC(=O)[C@@H]1[C@H](Nc2nc(Nc3cccc(C(=O)N4CCCC4)c3)ncc2-c2cccnc2)[C@H]2C=C[C@@H]1C2")
320
>>> numeric_value("NC(=O)[C@@H]1[C@H](Nc2nc(Nc3cccc(C(=O)N4CCCC4)c3)ncc2-c2ccnc(F)c2)[C@H]2C=C[C@@H]1C2")
100
